system_tested: ACE (rabbit lung-derived) (Oryctolagus cuniculus)
Sequence (P12822 34-1310): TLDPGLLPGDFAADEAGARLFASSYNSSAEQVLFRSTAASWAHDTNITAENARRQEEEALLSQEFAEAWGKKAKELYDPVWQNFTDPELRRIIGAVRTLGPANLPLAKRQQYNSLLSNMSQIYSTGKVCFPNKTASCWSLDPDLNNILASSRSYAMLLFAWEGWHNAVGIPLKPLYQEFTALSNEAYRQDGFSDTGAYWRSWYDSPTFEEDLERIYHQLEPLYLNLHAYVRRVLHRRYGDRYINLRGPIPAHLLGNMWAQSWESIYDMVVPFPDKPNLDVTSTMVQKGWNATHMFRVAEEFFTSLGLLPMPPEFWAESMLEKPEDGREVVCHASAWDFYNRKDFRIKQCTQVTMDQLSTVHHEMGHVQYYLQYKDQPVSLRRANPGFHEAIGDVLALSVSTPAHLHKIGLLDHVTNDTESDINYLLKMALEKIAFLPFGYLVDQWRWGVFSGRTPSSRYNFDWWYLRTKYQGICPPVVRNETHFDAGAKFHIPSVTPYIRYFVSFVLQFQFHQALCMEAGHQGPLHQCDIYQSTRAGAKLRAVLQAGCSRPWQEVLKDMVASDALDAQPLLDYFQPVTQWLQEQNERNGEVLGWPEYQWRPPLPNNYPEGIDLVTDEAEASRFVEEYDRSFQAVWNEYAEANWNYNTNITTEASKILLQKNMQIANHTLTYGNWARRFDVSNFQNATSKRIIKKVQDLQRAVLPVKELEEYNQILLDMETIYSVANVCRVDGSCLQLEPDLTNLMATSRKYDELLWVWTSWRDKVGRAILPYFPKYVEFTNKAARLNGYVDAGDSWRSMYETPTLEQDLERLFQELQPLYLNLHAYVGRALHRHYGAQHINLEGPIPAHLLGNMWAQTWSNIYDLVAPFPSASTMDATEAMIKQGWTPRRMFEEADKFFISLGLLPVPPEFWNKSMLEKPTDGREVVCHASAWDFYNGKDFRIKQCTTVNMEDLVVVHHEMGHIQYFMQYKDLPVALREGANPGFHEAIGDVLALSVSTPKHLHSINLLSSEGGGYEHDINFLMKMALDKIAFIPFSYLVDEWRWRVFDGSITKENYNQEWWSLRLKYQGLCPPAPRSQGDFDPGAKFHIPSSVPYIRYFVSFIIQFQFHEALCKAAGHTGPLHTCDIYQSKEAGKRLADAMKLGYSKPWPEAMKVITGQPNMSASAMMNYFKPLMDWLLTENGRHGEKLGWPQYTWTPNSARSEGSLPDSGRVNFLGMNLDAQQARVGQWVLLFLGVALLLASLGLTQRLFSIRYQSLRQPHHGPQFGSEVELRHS
Non-standard residues stand in square brackets, D forms with d. Residues, ends and D or L forms follow the SMILES beside them. pGlu = O=C1CC[C@@H](C(=O)O)N1
value_kind: IC50 (µM)

{"compound": "O=C(O)[C@H](Cc1c[nH]c2ccccc12)NC(=O)[C@@H]1CCCN1 [Pro-Trp] (H-Pro-Trp-OH; N-terminus and C-terminus assumed)", "unit_descriptor": "µM", "IC50": 186}
{"compound": "C[C@@H](O)[C@H](NC(=O)[C@@H](N)Cc1ccc(O)cc1)C(=O)O [Tyr-Thr] (H-Tyr-Thr-OH)", "unit_descriptor": "µM", "IC50": 35}

[P] NC(=O)C[C@H](N)C(=O)N[C@@H](Cc1c[nH]c2ccccc12)C(=O)O [Asn-Trp] (H-Asn-Trp-OH; N-terminus and C-terminus assumed)
[Q] O=C1CC[C@@H](C(=O)N2CCC[C@H]2C(=O)O)N1 [pyroGlu-Pro] ([pGlu]-Pro-OH; C-terminus assumed)
**Q:** Hey, which is lower on measured IC50, P or Q ? The response must carry the label of the picked entry.
**A:** P
